Target: human somatostatin receptor subtype 2 (Homo sapiens, UniProt P30874)
Sequence (P30874 whole entry): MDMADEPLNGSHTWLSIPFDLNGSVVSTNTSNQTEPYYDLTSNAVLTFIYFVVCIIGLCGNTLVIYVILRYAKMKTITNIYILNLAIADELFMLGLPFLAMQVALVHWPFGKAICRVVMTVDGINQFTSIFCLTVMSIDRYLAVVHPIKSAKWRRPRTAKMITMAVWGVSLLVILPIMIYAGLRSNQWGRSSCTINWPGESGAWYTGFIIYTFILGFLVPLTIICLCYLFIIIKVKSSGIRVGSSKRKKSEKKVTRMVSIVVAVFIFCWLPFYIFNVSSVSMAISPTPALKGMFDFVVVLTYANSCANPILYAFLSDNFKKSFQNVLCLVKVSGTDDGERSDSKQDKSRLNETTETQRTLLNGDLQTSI
Test: cAMP assay for SST2R (inhibition of cAMP in CHO-K1 cells)
Settings: Table B; inhibition of cAMP via human SST2 receptor; read-out: SST2 potency
pEC50: −log10 of the molar value.
The following molecules are shown together with reported pEC50 values.

Answered cases to consult:
[[record]]
smiles_structure = "COc1ncc(C(=O)N[C@@H](C)C(F)(F)F)c(N2CC[C@](C)(N)C2)c1-c1cc(F)cc(Cl)c1"
endpoint_name = "pEC50"
endpoint_value = "7.00 to 8.00"

[[record]]
smiles_structure = "COc1cc(-c2c(C)ncc(C(=O)NC3CCCC3)c2N2CC[C@](C)(N)C2)ccn1"
endpoint_name = "pEC50"
endpoint_value = "< 6.00"

[[record]]
smiles_structure = "Cc1ncc(C(=O)N[C@@H](C)C(F)(F)F)c(N2CC[C@H](N)C2)c1-c1cc(F)cc(F)c1"
endpoint_name = "pEC50"
endpoint_value = "6.00 to 7.00"

[[record]]
smiles_structure = "C[C@H](NC(=O)c1cncc(-c2cccc3c2OC(F)(F)O3)c1N1CC[C@](C)(N)C1)C1CC1"
endpoint_name = "pEC50"
endpoint_value = "6.00 to 7.00"

[[record]]
smiles_structure = "N#Cc1ncc(C(=O)NC23CC(C2)C3)c(N2CC[C@H](N)C2)c1-c1cc(F)cc(Cl)c1"
endpoint_name = "pEC50"
endpoint_value = "6.00 to 7.00"

[[record]]
smiles_structure = "COc1cc(-c2c(C)ncc(C(=O)NC3CCCCC3)c2N2CC[C@](C)(N)C2)ccn1"
endpoint_name = "pEC50"
endpoint_value = "< 6.00"


# value lookup — system human somatostatin receptor subtype 2 (Homo sapiens, UniProt P30874), readout pEC50, item C[C@H](NC(=O)c1cncc(-c2ccc3cnn(C)c3c2)c1N1CC[C@](C)(N)C1)C1CC1
< 6.00

----------
Biological target: human somatostatin receptor subtype 2 (Homo sapiens, UniProt P30874)
Assay: cAMP assay for SST2R (inhibition of cAMP in CHO-K1 cells)
Conditions: Table B; inhibition of cAMP via human SST2 receptor; read-out: SST2 potency
pEC50: −log10 of the molar value.
# pEC50 per entry

As a guide, the following entries are already answered.
[[record]]
compound = "COc1cc(C#N)cc(-c2c(C)ncc(C(=O)N[C@@H](C)C(F)(F)F)c2N2CC[C@](C)(N)C2)c1 [1-275]"
endpoint_value = "6.00 to 7.00"

[[record]]
compound = "Cc1cc(F)cc(-c2cncc(C(=O)NC(C)C3CC3)c2N2CC[C@](C)(N)C2)c1 (some centres unmarked) [1-24]"
endpoint_value = "7.00 to 8.00"

[[record]]
compound = "Cc1cc(C)cc(NC(=O)c2cncc(-c3cc(C)cc(C)c3)c2N2CC[C@H](N)C2)c1 [1-1]"
endpoint_value = "7.00 to 8.00"


Any idea what pEC50 was measured for Cc1ncc(C(=O)NC2CCC(F)(F)CC2)c(N2CC[C@H](N)C2)c1-c1cc(F)cc(F)c1 [1-233] ?
< 6.00

Query N#Cc1ncc(C(=O)NCCCc2ccccc2)c(N2CC[C@H](N)C2)c1-c1cc(F)cc(F)c1 [1-110] next
< 6.00

Please do the same for COc1ncc(C(=O)N[C@@H](C)C(F)(F)F)c(N2CC[C@](C)(N)C2)c1-c1ccc(F)c(Cl)c1 [1-261] as well.
6.00 to 7.00

Note, next up: C[C@]1(N)CCN(c2c(C(=O)NC3CCC(F)(F)CC3)cncc2-c2cc(F)cc(F)c2)C1 [1-16]
6.00 to 7.00

Thanks! And CC1(NC(=O)c2cncc(-c3cc(F)cc(F)c3)c2N2CC[C@](C)(N)C2)CCC1 [1-34] ?
6.00 to 7.00

----------
Quick list: pEC50 per entry.
Molecular target: human somatostatin receptor subtype 5 (Homo sapiens)
Construct: expressed in transfected cells
Sequence (P35346 whole entry): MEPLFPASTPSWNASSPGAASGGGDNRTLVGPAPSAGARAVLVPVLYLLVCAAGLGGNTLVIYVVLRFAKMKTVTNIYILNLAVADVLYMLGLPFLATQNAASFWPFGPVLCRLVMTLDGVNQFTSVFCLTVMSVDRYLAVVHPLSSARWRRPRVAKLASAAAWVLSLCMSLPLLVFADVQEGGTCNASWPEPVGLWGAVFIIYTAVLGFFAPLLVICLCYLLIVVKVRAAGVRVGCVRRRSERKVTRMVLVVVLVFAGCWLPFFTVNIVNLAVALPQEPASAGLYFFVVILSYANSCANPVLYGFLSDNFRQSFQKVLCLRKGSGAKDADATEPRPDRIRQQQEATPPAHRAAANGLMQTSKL
Assay: cAMP assay for SST5R (inhibition of cAMP in CHO-K1 cells)
Assay type: cell-based
Settings: Table A; inhibition of cAMP via human SST5 receptor; read-out: SST5 potency
pEC50: −log10 of the molar value.

[[record]]
molecule = "CC(CC(F)(F)F)NC(=O)c1cncc(-c2cc(F)cc(F)c2)c1N1CC[C@](C)(N)C1 (stereo partly drawn) [1-60]"
target_entity = "human somatostatin receptor subtype 5 (Homo sapiens)"
endpoint_value = "> 8.00"

[[record]]
molecule = "C[C@]1(N)CCN(c2c(C(=O)NCc3ccon3)cnc(C#N)c2-c2cc(F)cc(Cl)c2)C1 [1-244]"
target_entity = "human somatostatin receptor subtype 5 (Homo sapiens)"
endpoint_value = "> 8.00"


Shifting focus to the molecule that follows.
I am curious: what pEC50 value has been reported for COc1ncc(C(=O)N[C@@H](C)C2CC2)c(N2CC[C@](C)(N)C2)c1-c1cc(F)cc(C#N)c1 [1-153] ?
> 8.00

----------
Recorded measurements of EC50, one per entry
Molecular target: human somatostatin receptor subtype 2 (Homo sapiens)
Assay: cAMP assay for SST2R (inhibition of cAMP in CHO-K1 cells)
Conditions: Table B; inhibition of cAMP via human SST2 receptor; read-out: SST2 potency

[[record]]
smiles_structure = "COc1ncc(C(=O)N[C@@H](C)C2CC2)c(N2CC[C@](C)(N)C2)c1-c1cc(F)cc(C#N)c1"
endpoint_name = "EC50"
endpoint_value = "100 to 1000 nM"

[[record]]
smiles_structure = "C[C@]1(N)CCN(c2c(C(=O)NC3CCC(F)(F)CC3)cncc2-c2cccc(C#N)c2)C1"
endpoint_name = "EC50"
endpoint_value = "> 1000 nM"

[[record]]
smiles_structure = "COc1ncc(C(=O)N[C@@H](C)C2CC2)c(N2CC[C@](C)(N)C2)c1-c1cccc(OC(F)(F)F)c1"
endpoint_name = "EC50"
endpoint_value = "> 1000 nM"

[[record]]
smiles_structure = "CCOC(=O)COc1ncc(C(=O)NC2CCC(F)(F)CC2)c(N2CC[C@H](N)C2)c1-c1cc(F)cc(F)c1"
endpoint_name = "EC50"
endpoint_value = "100 to 1000 nM"

[[record]]
smiles_structure = "COc1ncc(C(=O)N[C@@H](C)C2CC2)c(N2CC[C@](C)(N)C2)c1-c1ccc(F)c(F)c1"
endpoint_name = "EC50"
endpoint_value = "100 to 1000 nM"


Suppose we examine the compound C[C@]1(N)CCN(c2c(C(=O)NCc3ccccc3O)cnc(C#N)c2-c2cc(F)cc(F)c2)C1 ; what EC50 value has been reported?
> 1000 nM

Now the compound C[C@H](NC(=O)c1cnc(C(F)(F)F)c(-c2cc(Cl)cc(Cl)c2)c1N1CC[C@H](N)C1)C1CC1
100 to 1000 nM

Now consider COc1ncc(C(=O)N[C@@H](C)C(F)(F)F)c(N2CC[C@](C)(N)C2)c1-c1ccc2nonc2c1 .
100 to 1000 nM

Moving on to the next compound: COc1ncc(C(=O)N[C@@H](C)c2ccccn2)c(N2CC[C@](C)(N)C2)c1-c1cc(F)cc(Cl)c1
100 to 1000 nM
